Values from patent US9113629B2

The entries below come with measured melting point values attached.

compound	melting point
Nc1c(F)c(-c2ccc(OC(F)F)cc2F)nc(C(=O)O)c1Cl [Compound 140]	149 to 151 °C

Prompt line: What does the record list as melting point for COC(=O)c1nc(-c2c(F)cc(I)c(F)c2F)cc(N)c1Cl [Compound 90] ?
Response line: 176.2 to 178.7 °C

Prompt line: What does the record list as melting point for Nc1c(Cl)c(C(=O)O)nc(-c2ccc(I)cc2)c1Cl [Compound 173] ?
Response line: 188.7 to 190.3 °C

Prompt line: What does the record list as melting point for COC(=O)c1nc(-c2cc(F)c(I)cc2F)nc(N)c1OC [Compound 101] ?
Response line: 193 to 194 °C

Prompt line: What does the record list as melting point for Nc1c(F)c(-c2ccc(I)c(F)c2)nc(C(=O)O)c1Cl [Compound 157] ?
Response line: 140 to 150 °C (dec.)

Prompt line: What does the record list as melting point for C=Cc1c(C(=O)OC)nc(-c2ccc(C(F)(F)F)c(F)c2F)c(F)c1N [Compound 53] ?
Response line: 118 to 120 °C

Prompt line: What does the record list as melting point for COC(=O)c1nc(-c2ccc(I)c(F)c2)c(F)c(N)c1Cl [Compound 132] ?
Response line: 138 to 140 °C

Prompt line: What does the record list as melting point for C#Cc1ccc(-c2nc(N)c(OC)c(C(=O)OC)n2)c(F)c1F [Compound 84] ?
Response line: 214 to 217 °C

Prompt line: What does the record list as melting point for COC(=O)c1nc(-c2ccc(C#N)c(F)c2F)c(F)c(N)c1Cl [Compound 160] ?
Response line: 163 to 164 °C
